Entries below carry reported pIC50 on Monoacylglycerol lipase ABHD6 (Mus musculus) (UniProt Q8R2Y0).
Sequence (Q8R2Y0 whole entry, looked up): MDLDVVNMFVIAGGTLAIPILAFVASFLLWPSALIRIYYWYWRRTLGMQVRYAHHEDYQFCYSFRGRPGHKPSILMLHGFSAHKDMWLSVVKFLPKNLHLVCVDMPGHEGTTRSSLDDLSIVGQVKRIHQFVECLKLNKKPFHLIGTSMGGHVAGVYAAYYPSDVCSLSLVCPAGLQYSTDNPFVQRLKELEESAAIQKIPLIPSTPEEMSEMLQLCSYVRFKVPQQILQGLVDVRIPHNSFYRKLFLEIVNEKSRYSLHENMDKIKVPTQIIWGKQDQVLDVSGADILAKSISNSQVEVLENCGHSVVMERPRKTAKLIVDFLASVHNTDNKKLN
To interpret pIC50, take it as minus log10 of a concentration measured in moles per litre.

| Compound | System Name | pIC50 |
| --- | --- | --- |
| COc1ccc(-c2ccc(-c3cn(C(=O)N4CCCCC4c4ccccc4)nn3)cc2)cc1 (configuration not stated) | Monoacylglycerol lipase ABHD6 (Mus musculus) (UniProt Q8R2Y0) | 7.42 |

Okay, now this compound:
*Q* What pIC50 value was documented for this compound, O=C(N1CCCCC1c1ccccc1)n1cc(-c2ccc(-c3ccccc3)cc2)nn1 (configuration not stated) ?
*A* 8.00

Recorded values, source PubChem BioAssay AID602322.
